system: 379773-124-R-J2-PDC complex spheroids, viability % test/control; assay: Anticancer human tumor 379773-124-R-J2-PDC patient-derived endometrial carcinoma cell line growth inhibition [CLK]; settings: second compound 0.1 µM; first compound 0.0316 µM; active compounds read low;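 note: compound exposure lasted seven days before the viability readout; 100% = DMSO vehicle control wells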
Recorded viability, T/C, one value per entry.
Note: unit % is implicit; provide only the numeric part.

Completed entries (count: 2):
• C#Cc1c(F)ccc2cc(O)cc(-c3ncc4c(N5CC6CCC(C5)N6)nc(OCC56CCCN5CC(F)C6)nc4c3F)c12 (stereo not drawn) + CN1CCN(c2cc(C(=O)Nc3cc4cc(-c5cnn(C)c5)ccc4cn3)ccn2)CC1 = 89.7
• CC1(C)CCC(CN2CCN(c3ccc(C(=O)NS(=O)(=O)c4ccc(NCC5CCOCC5)c([N+](=O)[O-])c4)c(Oc4cnc5[nH]ccc5c4)c3)CC2)=C(c2ccc(Cl)cc2)C1 + CNC(=O)c1ccc(Nc2nc(OC3CCCC3)c3c(-c4ccc5nc(C)oc5c4)c[nH]c3n2)c(OC)c1 = 42.1

Below: the item to evaluate.
Asked: Dear colleague, I am looking for the recorded viability, T/C of the following compound: COC1C=CCC(C)C(C)S(=O)(=O)NC(=O)c2ccc3c(c2)N(CC2CCC21)CC1(CCCc2cc(Cl)ccc21)CO3 (stereo not drawn) + CN1CCN(c2cc(C(=O)Nc3cc4cc(-c5cnn(C)c5)ccc4cn3)ccn2)CC1
Given back: 77.2

# credit: PubChem BioAssay AID2060604
